Molecular target: T1, TNFR1 (Homo sapiens, UniProt P19438)
T1 chain: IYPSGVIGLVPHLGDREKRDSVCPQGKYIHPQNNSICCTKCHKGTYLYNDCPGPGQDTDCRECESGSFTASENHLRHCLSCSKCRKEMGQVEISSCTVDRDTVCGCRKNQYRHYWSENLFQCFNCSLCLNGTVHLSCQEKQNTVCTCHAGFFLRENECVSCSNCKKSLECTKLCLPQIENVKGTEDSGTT
Experiment: yeast display SC50
apparent Kd (screen) by entry:
attributeMeasured: apparent Kd (screen)

>>> result("H78Q (designed binder) MTLQELLREEALRRAEAEAFRYALELLAEKFPEQKEYLLDLAEEIESQIRSLSGVDVEDVRKFLDKEWAWVKELLAEQPAELAEVEAARAARLAELRAEVEAKVAA")
"0.869 nM"
>>> result("Q4H (designed binder) MTLHELLREEALRRAEAEAFRYALELLAEKFPEQKEYLLDLAEEIESQIRSLSGVDVEDVRKFLDKEWAWVKELLAEHPAELAEVEAARAARLAELRAEVEAKVAA")
"0.79 nM"
>>> result("F31L (designed binder) MTLQELLREEALRRAEAEAFRYALELLAEKLPEQKEYLLDLAEEIESQIRSLSGVDVEDVRKFLDKEWAWVKELLAEHPAELAEVEAARAARLAELRAEVEAKVAA")
"0.869 nM"
>>> result("Q48I (designed binder) MTLQELLREEALRRAEAEAFRYALELLAEKFPEQKEYLLDLAEEIESIIRSLSGVDVEDVRKFLDKEWAWVKELLAEHPAELAEVEAARAARLAELRAEVEAKVAA")
"5.84 nM"
